Origin of the recorded values: PubChem BioAssay AID504926

Test system: S. cerevisiae growth, flow cytometry event count, 7 d
Test: yeast growth inhibition by event count, dose response, cytotoxicity control for yeast caloric restriction mimetic project, powder samples (AID 504926)
Details: at 100 µM; stronger effect = higher value
Reported Property: event count decrease (%)
Output spec: scalar in %, unitless text.

Consider the reported event count decrease for these compounds:
- Compound: "Cc1cc2nc3ccc(N(C)C)cc3nc2cc1N"
  event count decrease, %: -28
- Compound: "O=C(Nc1ccc2nccnc2c1)N1CCOCC1"
  event count decrease, %: -21
- Compound: "CCC(=Nc1ccccc1O)C1=C(O)CC(c2ccccc2)CC1=O (configuration not stated)"
  event count decrease, %: -11
- Compound: "CC(C)(C)n1nc(-c2ccc(F)cc2)c2c(N)ncnc21"
  event count decrease, %: -56
- Compound: "CC(C)(C)NC(=O)Nc1ccc2nccnc2c1"
  event count decrease, %: -56
- Compound: "COc1ccc2cc(C3CC(c4ccco4)=NN3S(=O)(=O)c3ccccc3)c(Cl)nc2c1 (configuration not stated)"
  event count decrease, %: 26

# query: event count decrease of entry O=C(O)c1cccc2nccnc12
-180
